Data export: IC50 values recorded with Dihydrofolate reductase (Pneumocystis carinii).
Supply the numeric figure in nM, leaving out any unit text.

Reference set (3 entries):
Compound	IC50 / nM
CCN=NNc1cc(-c2c(N)nc(N)nc2CC)ccc1Cl	2800
Nc1ccc(S(=O)(=O)c2ccc(N)cc2)cc1	1500
CCc1nc(N)nc(N)c1-c1ccc(Cl)c(NCN(C)C)c1	10600

Note to self: IC50 recorded for CN(Cc1cnc2nc(N)nc(N)c2n1)c1ccc(C(=O)NC(CCC(=O)NC(CCC(=O)NC(CCC(=O)NC(CCC(=O)O)C(=O)O)C(=O)O)C(=O)O)C(=O)O)cc1 (stereo not given) was 35

Reported IC50 ( COc1ccc(OC)c(CCc2sc3nc(N)nc(N)c3c2C)c1 ) = 1200

* * *

Molecular target: Dihydrofolate reductase (Rattus norvegicus, UniProt Q920D2)
Sequence (Q920D2 whole entry): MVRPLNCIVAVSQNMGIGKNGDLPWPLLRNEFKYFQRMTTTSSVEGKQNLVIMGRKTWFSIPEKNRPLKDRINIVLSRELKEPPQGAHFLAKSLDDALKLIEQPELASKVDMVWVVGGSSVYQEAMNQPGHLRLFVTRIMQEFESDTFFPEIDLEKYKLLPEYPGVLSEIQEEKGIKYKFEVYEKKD
Test: Inhibitory activity against dihydrofolate reductase in rat liver.
Endpoint name: IC50 (nM)
State just the number; it will be interpreted in nM.

The reported Dihydrofolate reductase (Rattus norvegicus, UniProt Q920D2) IC50 of CC1(C)N=C(N)N=C(N)N1c1ccc(Cl)cc1 is 110

* * *

Biological target: Dihydrofolate reductase (Pneumocystis carinii, UniProt P16184)
Sequence (P16184 whole entry): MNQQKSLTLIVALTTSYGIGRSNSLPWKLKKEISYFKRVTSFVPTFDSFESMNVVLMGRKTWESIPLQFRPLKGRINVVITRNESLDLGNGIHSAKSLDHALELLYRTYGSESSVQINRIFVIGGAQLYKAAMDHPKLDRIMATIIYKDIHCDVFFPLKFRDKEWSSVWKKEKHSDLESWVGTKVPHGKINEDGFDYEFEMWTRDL
Each entry below carries its reported pIC50.
The meaning of pIC50 here: minus log10 of the concentration in molar units.

Take a look at these entries with their results.
> print(dat)
                                   compound  endpoint.name  observed.result
1  CN(Cc1cnc2cc(N)cc(N)c2n1)c1ccc(C(=O)NC(CCC(=O)O)C(=O)O)c2ccccc12 (stereo unspecified)          pIC50             6.72
2            Nc1cc(N)c2nc(CSc3ccccc3)cnc2c1          pIC50             5.02
3  Nc1nc(N)c2c(ncc3c2ccn3Cc2ccc(Cl)cc2Cl)n1          pIC50             8.22
4  COc1cc(Cn2ccc3c4c(N)nc(N)nc4nc(O)c32)cc(OC)c1OC          pIC50             5.51

The recorded pIC50 for Nc1nc(N)c2cc(Sc3cccc(C(F)(F)F)c3)sc2n1 is 3.92

// pIC50 lookup, compound = CCc1nc(N)nc(N)c1-c1ccc(Cl)c([N+]#N)c1 , result: 6.72

* * *

biological target: Dihydrofolate reductase (Pneumocystis carinii, UniProt P16184)
Endpoint name: pIC50
Just so you know, pIC50 here is -log10 of the concentration in molar units; reply with that number alone.

> print(dat)
                                   compound  observed.result
1  CCOc1cc(Cc2cnc(N)nc2N)cc(OCC)c1-n1cccc1 [EPIROPRIM]             5.52

Alright, here's another compound for you.
The compound CC1(C)N=C(N)N=C(N)N1c1ccc(Cl)cc1 [CYCLOGUANIL] on Dihydrofolate reductase (Pneumocystis carinii, UniProt P16184): pIC50 was 6.35

* * *

biological target: Dihydrofolate reductase (Rattus norvegicus, UniProt Q920D2); experiment: Inhibitory activity against dihydrofolate reductase in rat.
Endpoint name: IC50

Per the record, CCN=NNc1cc(-c2c(N)nc(N)nc2CC)ccc1Cl has IC50 of 18.9 µM

* * *

species on record: Rattus norvegicus; experiment: Toxicity was reported in rat.; format: organism-based; settings: in vivo
Endpoint name: Toxicity
Please reply with the value in numeric form only.

Guide cases for Toxicity, answers given:
> print(dat)
                                 cpd.smiles  observed.result
1   COc1cc(C(=N)N)ccc1OCOc1ccc(C(=N)N)cc1OC                0
2  N=C(N)c1cc(N)cc(OCCCCOc2cc(C(=N)N)ccc2N)c1                0

Just so you know, measured Toxicity for c1cc(C2=NCCN2)ccc1OCOc1ccc(C2=NCCN2)cc1 came out at 0

* * *

assay: Inhibitory activity of Pneumocystis carinii growth culture.
Endpoint name: pIC50
Value format note: pIC50 is -log10 of concentration (mol/L); just state the number.

Documented pIC50 of CCN=NNc1cc(-c2c(N)nc(N)nc2CC)ccc1Cl : 5.26

* * *

Target: UniProt:P16184
Sequence (P16184 whole entry): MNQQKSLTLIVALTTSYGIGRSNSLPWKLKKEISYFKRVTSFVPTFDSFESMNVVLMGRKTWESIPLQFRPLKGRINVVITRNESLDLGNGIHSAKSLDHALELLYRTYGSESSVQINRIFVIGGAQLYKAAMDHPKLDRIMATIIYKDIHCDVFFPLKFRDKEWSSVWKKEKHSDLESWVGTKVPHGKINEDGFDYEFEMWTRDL
Endpoint name: pIC50
Remember, pIC50 is on a log scale: it is -log10 of the molar concentration.

Recorded result, Cc1cc(NS(=O)(=O)c2ccc(N)cc2)no1 , pIC50: 7.00

Just for reference, ChEMBL document CHEMBL1128198 is where these values come from.
